Origin of the recorded values: patent US8415351B2

experimental-target: HCV polymerase 1B (Δ21 NS5B, BK) (Hepatitis C virus genotype 1b)
Construct: 20 to 50 nM Δ21 NS5B
assay-info: biochemical
pIC50: −log10 of the molar value.
reported-property: pIC50

Sample records with pIC50:
# input What pIC50 value was documented for this compound, CC(C)(C)c1cc(N2CCC(=O)NC2=O)cc(C(=O)Nc2scc(CNS(C)(=O)=O)c2S(N)(=O)=O)c1O [IA-L3-1.89] ?
# output 7.00 to 8.00

# input Record: COc1c(C#Cc2cc(F)c(NS(C)(=O)=O)cc2C(F)(F)F)cc(N2CCC(=O)NC2=O)cc1C(C)(C)C [IA-L2-1.22]
# output 7.00 to 8.00

# input # iterate: CC(C)(C)c1cc(N2CCC(=O)NC2=O)cc(NC(=O)c2ccccc2)c1O [IA-L4-1.2]
# output < 6.00

# input Another compound to look at: C=CCN1C(=O)CCN(c2cc(C(=O)Nc3ccc(N(CC=C)S(C)(=O)=O)cc3)c(OC)c(C(C)(C)C)c2)C1=O [IA-L3-1.118]
# output < 6.00

Further cases:
# input I am curious: what pIC50 value has been reported for CC(C)(C)c1cc(N2CCC(=O)NC2=O)cc(C(=O)Nc2ccc(S(C)(=O)=O)cc2)c1O [IA-L3-1.21] ?
# output 6.00 to 7.00

# input Next up: COc1c(C(=O)Nc2ccc(NC(C)=O)cc2)cc(N2CCC(=O)NC2=O)cc1C(C)(C)C [IA-L3-1.47]
# output < 6.00

# input Can you handle COc1c(C(=O)Nc2ccc(N)cc2)cc(N2CCC(=O)NC2=O)cc1C(C)(C)C [IA-L3-1.107] next?
# output < 6.00

====

Overview of recorded IC50 for various compounds
experimental-target: HCV polymerase 1B (Δ21 NS5B, BK) (Hepatitis C virus genotype 1b, UniProt P26663)
Construct: 20 to 50 nM Δ21 NS5B
Sequence (P26663 2420-2989, stated change not applied): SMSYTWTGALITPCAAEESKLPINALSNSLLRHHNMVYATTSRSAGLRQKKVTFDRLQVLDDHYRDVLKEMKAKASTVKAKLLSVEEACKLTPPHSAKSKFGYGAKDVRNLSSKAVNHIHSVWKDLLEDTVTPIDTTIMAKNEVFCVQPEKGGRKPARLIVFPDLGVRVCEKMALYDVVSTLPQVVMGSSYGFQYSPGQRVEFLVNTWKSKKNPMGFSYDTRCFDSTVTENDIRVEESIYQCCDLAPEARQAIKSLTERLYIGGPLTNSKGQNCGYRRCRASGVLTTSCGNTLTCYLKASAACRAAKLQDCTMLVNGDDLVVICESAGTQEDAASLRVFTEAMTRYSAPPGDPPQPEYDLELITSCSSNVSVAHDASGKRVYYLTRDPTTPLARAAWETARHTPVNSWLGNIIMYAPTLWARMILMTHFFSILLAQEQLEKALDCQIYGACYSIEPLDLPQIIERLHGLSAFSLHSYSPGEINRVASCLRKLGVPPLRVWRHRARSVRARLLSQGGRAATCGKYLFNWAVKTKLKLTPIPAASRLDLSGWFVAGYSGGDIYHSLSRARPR
assay-info: biochemical
Method: HCV Polymerase Inhibition Assay Either two-fold serial dilutions (fractional inhibition assay) or a narrower range of dilutions spanning the IC50 of the inhibitor (tight binding assay) of the inhibitors were incubated with 20 mM Tris-Cl pH 7.4, 2 mM MnCl2, 1 mM dithiothreitol, 1 mM ethylene diamine tetraacetic acid (EDTA), 60 to 125 μM GTP and 20 to 50 nM Δ21 NS5B (HCV Strain 1B (BK, Genbank accession number M58335, or H77, Genbank accession number AF011751)) for 15 min at room temperature. […]

See these solved cases before continuing.
# input // lookup IC50 | system=HCV polymerase 1B (Δ21 NS5B, BK) (Hepatitis C virus genotype 1b, UniProt P26663) | key= `CCc1cc(N2CCC(=O)NC2=O)cc(C(=O)Nc2ccc(NS(C)(=O)=O)cc2)c1OC`
# output 100 to 1000 nM

# input Now consider `Cc1noc(C)c1S(=O)(=O)Nc1ccc(NC(=O)c2cc(N3CCC(=O)NC3=O)cc(C(C)(C)C)c2O)cc1` and answer again.
# output < 10 nM

# input COc1c(-c2ccc3c(c2)CCC3O)cc(-n2ccc(=O)[nH]c2=O)cc1C(C)(C)C (stereo not drawn) ?
# output 100 to 1000 nM

# input // query: `COc1c(C(=O)Nc2ccc(NS(=O)(=O)CCO)cc2)cc(N2CCC(=O)NC2=O)cc1C(C)(C)C`
# output 10 to 100 nM

# input Field entry: `COc1c(-c2ccc3c(CN(C)S(C)(=O)=O)csc3c2)cc(-n2ccc(=O)[nH]c2=O)cc1C(C)(C)C`
# output 10 to 100 nM

# input Also `CC(C)(C)c1cc(N2CCC(=O)NC2=O)cc(C(=O)Nc2ccccc2)c1O` , if possible.
# output 100 to 1000 nM

# input Same for `COc1c(C#Cc2ccc(NS(C)(=O)=O)cc2C(C)(C)C)cc(-n2ccc(=O)[nH]c2=O)cc1C(C)(C)C`
# output 10 to 100 nM

# input Quick one: `C=CCN(c1ccc(NC(=O)c2cc(N3CCC(=O)NC3=O)cc(C(C)(C)C)c2OC)cc1)S(C)(=O)=O`
# output > 1000 nM

# input Same for `COc1c(NC(=O)c2ccccc2)cc(N2CCC(=O)NC2=O)cc1C(C)(C)C`
# output 100 to 1000 nM

# input Now consider CCOC(=O)C1CCCN(Cc2cc(N3CCC(=O)NC3=O)cc(C(C)(C)C)c2O)C1 (stereo not drawn) and answer again.
# output > 1000 nM

Others:
# input Lab note: need IC50 for `CN(C(=O)c1cc(N2CCC(=O)NC2=O)cc(C(C)(C)C)c1O)c1ccc(NS(C)(=O)=O)cc1` on HCV polymerase 1B (Δ21 NS5B, BK) (Hepatitis C virus genotype 1b, UniProt P26663), anyone have it?
# output 10 to 100 nM

# input // query: `COc1c(C#Cc2ccc(NS(C)(=O)=O)c(OC(F)(F)F)c2)cc(N2CCC(=O)NC2=O)cc1C(C)(C)C`
# output 10 to 100 nM

# input Could you do the same for `COc1c(C#Cc2cc(F)c(NS(C)(=O)=O)cc2C(F)(F)F)cc(-n2ccc(=O)[nH]c2=O)cc1C(C)(C)C` , please?
# output 10 to 100 nM

# input Try this compound next: `CC(C)(C)c1cc(N2CCC(=O)NC2=O)cc(C(=O)Nc2ccc(NS(=O)(=O)Cc3ccccc3)cc2)c1O`
# output 10 to 100 nM

# input Request: `COc1c(C#Cc2ccc(NS(C)(=O)=O)c3ccccc23)cc(-n2ccc(=O)[nH]c2=O)cc1C(C)(C)C`
# output 10 to 100 nM
